Please respond with reported [θ]222 observed (degrees·cm^2·dmol^-1) for every item in the list.
# Experimental target: HR-C1 (1147-1185) (SARS coronavirus (Urbani strain))
Give bare numbers.

See these solved cases before continuing.
Binder	Reported endpoint	Endpoint result
HR-N2 (916-973) (modifications not checked) peptide: IQESLTTTSTALGKLQDVVNQNAQALNTLVKQLSSNFGAISSVLNDILSRLDKVEAEV	[θ]222 observed (degrees·cm^2·dmol^-1)	-17900
QKQIANQFNKAISQIQESLTTTSTALGKLQDVVNQ (modifications not checked) [HR-N8 (902-936)]	[θ]222 observed (degrees·cm^2·dmol^-1)	-7900

// below: [θ]222 observed (degrees·cm^2·dmol^-1) requested for another binder
Query: For the binder FNGIGVTQNVLYENQKQIANQFNKAISQIQESLTT (modifications not checked) [HR-N6 (888-922)] , what [θ]222 observed (degrees·cm^2·dmol^-1) is on record?
Response: -8600

Values compiled from patent US20080027006A1.
